biological target: Integrin alpha-4/beta-7 (Homo sapiens, UniProt P13612+P26010); experiment: Inhibition of integrin alpha4-beta7 adhesion to JY cells
Sequence (P13612 whole entry): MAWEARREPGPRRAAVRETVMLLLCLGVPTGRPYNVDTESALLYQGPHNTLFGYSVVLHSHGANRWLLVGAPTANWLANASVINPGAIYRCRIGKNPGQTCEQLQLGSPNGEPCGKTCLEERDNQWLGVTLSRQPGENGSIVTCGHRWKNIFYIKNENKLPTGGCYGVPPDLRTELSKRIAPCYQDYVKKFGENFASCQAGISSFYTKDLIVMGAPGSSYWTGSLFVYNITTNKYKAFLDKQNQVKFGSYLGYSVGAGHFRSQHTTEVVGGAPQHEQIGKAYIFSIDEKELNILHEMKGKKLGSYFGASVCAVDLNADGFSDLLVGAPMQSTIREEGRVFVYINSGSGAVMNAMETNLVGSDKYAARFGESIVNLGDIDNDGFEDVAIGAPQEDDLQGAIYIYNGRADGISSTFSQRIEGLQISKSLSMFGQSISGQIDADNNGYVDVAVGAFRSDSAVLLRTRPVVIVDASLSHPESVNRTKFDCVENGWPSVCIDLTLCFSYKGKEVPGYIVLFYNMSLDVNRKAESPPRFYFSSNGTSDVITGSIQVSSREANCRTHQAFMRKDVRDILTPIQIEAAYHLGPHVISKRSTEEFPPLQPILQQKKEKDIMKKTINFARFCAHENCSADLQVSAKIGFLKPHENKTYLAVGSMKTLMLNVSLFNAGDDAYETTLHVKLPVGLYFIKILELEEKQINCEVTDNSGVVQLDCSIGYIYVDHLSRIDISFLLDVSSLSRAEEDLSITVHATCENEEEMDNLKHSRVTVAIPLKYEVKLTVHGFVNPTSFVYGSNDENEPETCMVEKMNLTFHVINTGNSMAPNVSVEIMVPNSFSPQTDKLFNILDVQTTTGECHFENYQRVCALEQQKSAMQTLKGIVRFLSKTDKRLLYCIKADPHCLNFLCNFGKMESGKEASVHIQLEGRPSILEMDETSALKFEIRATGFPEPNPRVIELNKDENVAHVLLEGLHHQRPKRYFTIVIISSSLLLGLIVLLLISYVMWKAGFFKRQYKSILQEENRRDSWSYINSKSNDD
Sequence (P26010 whole entry): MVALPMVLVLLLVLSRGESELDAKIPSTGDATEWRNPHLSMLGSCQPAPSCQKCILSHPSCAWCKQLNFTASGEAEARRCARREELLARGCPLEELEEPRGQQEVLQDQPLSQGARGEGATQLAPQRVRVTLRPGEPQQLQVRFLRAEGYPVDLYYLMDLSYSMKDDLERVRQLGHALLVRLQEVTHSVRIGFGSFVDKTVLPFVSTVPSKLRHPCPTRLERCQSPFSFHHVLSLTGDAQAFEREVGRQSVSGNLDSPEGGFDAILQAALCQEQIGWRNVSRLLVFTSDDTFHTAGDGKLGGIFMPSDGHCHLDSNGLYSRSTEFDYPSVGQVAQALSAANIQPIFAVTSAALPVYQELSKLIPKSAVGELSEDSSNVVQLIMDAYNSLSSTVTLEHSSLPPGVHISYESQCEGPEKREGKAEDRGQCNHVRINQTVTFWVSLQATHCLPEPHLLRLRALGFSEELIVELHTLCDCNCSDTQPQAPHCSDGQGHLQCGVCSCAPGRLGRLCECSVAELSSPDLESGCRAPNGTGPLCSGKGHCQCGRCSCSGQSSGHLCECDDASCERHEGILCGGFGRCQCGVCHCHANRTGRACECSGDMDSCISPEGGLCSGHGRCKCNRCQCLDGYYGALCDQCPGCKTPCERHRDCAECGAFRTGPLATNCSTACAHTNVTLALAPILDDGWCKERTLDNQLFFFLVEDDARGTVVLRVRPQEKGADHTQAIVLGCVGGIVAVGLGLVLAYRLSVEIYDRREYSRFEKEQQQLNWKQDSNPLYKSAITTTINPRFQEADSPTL
pIC50: −log10 of the molar value. *1 amine or outer side, *2 acyl side, *3 side chain or, on linkers, in order; H or OH if unused. Where a SMILES comes first, the peptide text is derived from it. [ ]: non-standard residue; d: D form. The star is where a group is joined. X1 = O=C(Cc1ccc(N[*:1])cc1)[*:2]; NH(2-Me-phenyl) = Cc1ccccc1N*; CO = O=C([*:1])[*:2]
measured-attribute: pIC50

compound	pIC50
Cc1ccccc1NC(=O)Nc1ccc(CC(=O)N[C@@H](CC(C)C)C(=O)N[C@@H](CC(=O)O)C(=O)N[C@H](C(=O)N2CCC[C@H]2C(=O)O)C(C)C)cc1 ({NH(2-Me-phenyl)-CO}-[X1]LDVP-OH)	5.70

1. Cc1ccccc1NC(=O)Nc1ccc(CC(=O)N[C@@H](CC(C)C)C(=O)N[C@@H](CC(=O)O)C(=O)N[C@H](C(=O)O)C(C)C)cc1
2. Cc1ccccc1NC(=O)Nc1ccc(CC(=O)N[C@@H](CC(C)C)C(=O)N[C@@H](CC(=O)O)C(=O)O)cc1
-- ask For the pair 1 and 2 , which entry has the numerically smaller recorded pIC50? Give the label under which the chosen entry appears.
-- reply 2
(2: 4.23, 1: 5.10)
